Recorded shrunken log2 fold change, one value per entry.
system: Escherichia coli TOP10; experiment: shrunken log2 fold change of peptide-encoding DNA abundance (4.5 h post-induction vs induction); higher = less antimicrobial activity (less host growth inhibition); settings: time post-induction: 4.5 h; library: site-saturation at positions 5, 18, 19, 20
Keep the answer to the number alone.

RRIRQRPPRLPRPRPRPLYYPRP ... 0.614
RRIRVRPPRLPRPRPRPQHQPRP ... -0.571
RRIRARPPRLPRPRPRPGKQPRP ... 0.292
RRIRSRPPRLPRPRPRPNNPPRP ... -0.3
RRIRARPPRLPRPRPRPGFKPRP ... -0.02

Ask: Recorded shrunken log2 fold change for RRIRPRPPRLPRPRPRPSFAPRP , please?
Result: 0.258

Ask: Another sequence to check: RRIRQRPPRLPRPRPRPNYMPRP
Result: -0.226

Ask: Another sequence to check: RRIRNRPPRLPRPRPRPWRWPRP
Result: 0.0867

Ask: Another sequence to check: RRIRTRPPRLPRPRPRPPGFPRP
Result: 0.287

###

tested on: Escherichia coli TOP10; assay: shrunken log2 fold change of peptide-encoding DNA abundance (4.5 h post-induction vs induction); higher = less antimicrobial activity (less host growth inhibition); conditions: time post-induction: 4.5 h; library: site-saturation at positions 5, 18, 19, 20;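 note: peptides expressed intracellularly from a pBAD plasmid library in pooled LB shake-flask culture, induced with 0.3% L-arabinose, DNA abundance read by NGS, three biological replicates, DESeq2 with apeglm shrinkage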
recorded_metric: shrunken log2 fold change
Keep the answer to the number alone.

Answered examples (2):
RRIRNRPPRLPRPRPRPMCGPRP ... -0.301
RRIRPRPPRLPRPRPRPNGDPRP ... -0.0945

Ask: Recorded shrunken log2 fold change for RRIRLRPPRLPRPRPRPHRNPRP , please?
Result: -0.319

Ask: Another sequence to check: RRIRNRPPRLPRPRPRPYRYPRP
Result: 0.0342

Ask: Another sequence to check: RRIRGRPPRLPRPRPRPVGSPRP
Result: 0.749

Ask: Another sequence to check: RRIRDRPPRLPRPRPRPWEPPRP
Result: -1.35

Ask: Another sequence to check: RRIRRRPPRLPRPRPRPTSPPRP
Result: 0.225

Ask: Another sequence to check: RRIRYRPPRLPRPRPRPTCHPRP
Result: -1.16

Ask: Another sequence to check: RRIRYRPPRLPRPRPRPAGSPRP
Result: 0.0105

Ask: Another sequence to check: RRIRCRPPRLPRPRPRPFMAPRP
Result: -0.15

Ask: Another sequence to check: RRIRQRPPRLPRPRPRPPKPPRP
Result: -0.0724

Ask: Another sequence to check: RRIRVRPPRLPRPRPRPRCKPRP
Result: 0.039

Ask: Another sequence to check: RRIRYRPPRLPRPRPRPNYWPRP
Result: -0.698

Ask: Another sequence to check: RRIRARPPRLPRPRPRPIASPRP
Result: -0.0816

Ask: Another sequence to check: RRIRFRPPRLPRPRPRPEKLPRP
Result: -0.0722

Ask: Another sequence to check: RRIRERPPRLPRPRPRPCTMPRP
Result: 0.018

Ask: Another sequence to check: RRIRERPPRLPRPRPRPCHHPRP
Result: -0.209

Ask: Another sequence to check: RRIRLRPPRLPRPRPRPIFVPRP
Result: -0.0836

Ask: Another sequence to check: RRIRNRPPRLPRPRPRPNECPRP
Result: -0.124

Ask: Another sequence to check: RRIRKRPPRLPRPRPRPTQWPRP
Result: 0.622

Ask: Another sequence to check: RRIRQRPPRLPRPRPRPTAGPRP
Result: 0.144

Ask: Another sequence to check: RRIRHRPPRLPRPRPRPPEDPRP
Result: 0.314

Ask: Another sequence to check: RRIRIRPPRLPRPRPRPHPRPRP
Result: 0.192
